SYSTEM_TESTED: T1, MUC1-SEA-His protein (UniProt P15941 1039-1148, limits assumed)
T1 construct: domain: SEA; Recombinant antigen used for ELISA coating and as Biacore analyte; also called MUC-SEA-His; antigen protein; not shown: His tag
T1 sequence (looked up): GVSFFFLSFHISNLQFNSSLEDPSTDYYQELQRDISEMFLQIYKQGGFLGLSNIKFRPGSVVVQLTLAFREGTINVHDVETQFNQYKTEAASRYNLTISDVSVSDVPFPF
PROCEDURE_DETAILS: SPR Biacore T200, antibody captured, antigen as analyte
Would you mind telling me the reported koff of each entry?
I only need the number, in s⁻¹, no unit after it.

Exercise: Can you share its koff? I mean this binder: VH4 + VL2 (antibody, V domains shown, Humanized IgG expressed in HEK293; also called humanized antibody VH4+VL2) VH: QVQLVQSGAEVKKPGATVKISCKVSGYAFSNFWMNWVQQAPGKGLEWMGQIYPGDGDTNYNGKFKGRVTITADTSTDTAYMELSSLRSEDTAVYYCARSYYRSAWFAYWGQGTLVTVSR VL: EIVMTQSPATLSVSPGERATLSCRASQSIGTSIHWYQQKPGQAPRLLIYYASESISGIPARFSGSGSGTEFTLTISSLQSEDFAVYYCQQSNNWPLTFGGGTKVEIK
Solution: 0.0315

Exercise: Can you share its koff? I mean this binder: VH5 + VL1 (antibody, V domains shown, Humanized IgG expressed in HEK293; also called humanized antibody VH5+VL1) VH: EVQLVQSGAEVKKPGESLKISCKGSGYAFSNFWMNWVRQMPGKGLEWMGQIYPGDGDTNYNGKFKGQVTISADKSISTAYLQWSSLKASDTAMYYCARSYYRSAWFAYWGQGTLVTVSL VL: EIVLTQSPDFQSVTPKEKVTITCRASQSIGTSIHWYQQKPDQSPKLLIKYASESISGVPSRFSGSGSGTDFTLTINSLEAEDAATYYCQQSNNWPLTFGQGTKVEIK
Solution: 0.00192

Exercise: Can you share its koff? I mean this binder: VH3 + VL3 (antibody, V domains shown, Humanized IgG expressed in HEK293; also called humanized antibody VH3+VL3) VH: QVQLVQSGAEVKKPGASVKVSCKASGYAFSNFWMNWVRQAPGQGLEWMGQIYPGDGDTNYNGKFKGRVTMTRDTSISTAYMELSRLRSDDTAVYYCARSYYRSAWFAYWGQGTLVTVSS VL: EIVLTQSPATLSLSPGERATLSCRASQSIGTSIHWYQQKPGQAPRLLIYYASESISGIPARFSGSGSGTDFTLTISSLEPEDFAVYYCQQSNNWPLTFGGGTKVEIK
Solution: 0.0152
